Data origin, for the record: patent US7417045B2

TARGET_OR_TEST_SYSTEM: human CXCR3 (N-delta 4) (Homo sapiens, UniProt P49682)
Construct: CD8 leader (N); Flag tag; expressed in transfected cells; membranes
PROCEDURE_TEXT: Human CXCR3 (N-delta 4) Scintillation Proximity Assay (SPA), [125I] IP-10 binding
RECORDED_CONDITIONS: IC50 rating; [125I] IP-10 displacement, Ba/F3-hCXCR3 (N-delta 4) membranes
pIC50: −log10 of the molar value.
REPORTED_ENDPOINT: pIC50

INSERT INTO results (smiles_data, reported_value) VALUES
  ('CC[C@H]1CN(c2ncc(-c3ncc[nH]3)cc2Cl)CCN1C1CCN(Cc2ccc(C(=O)OC)cc2)CC1', '> 7.60'),
  ('CC[C@H]1CN(c2ncc(-c3ncc[nH]3)cc2Cl)CCN1C1CCN(CC(=O)c2ccc(Cl)cc2)CC1', '< 7.00'),
  ('CC[C@H]1CN(c2ncc(-c3ncc[nH]3)cc2Cl)CCN1C1CCN(Cc2ccc(C(=O)O)cc2)CC1', '< 7.00'),
  ('CC[C@H]1CN(c2ncc(-c3nnco3)cc2Cl)CCN1C1CCN(C(=O)c2ccc(Br)cc2)CC1', '7.00 to 7.60');

Incoming: Name the recorded pIC50 for "CC[C@H]1CN(c2ncc(C3=NCCN3)cc2Cl)CCN1C1CCN([C@@H](CO)c2ccc(Cl)cc2)CC1" .
Outgoing: > 7.60

Incoming: Try the compound "CC[C@H]1CN(c2ncc(-c3ncc[nH]3)cc2Cl)CCN1C1(C)CCN(Cc2ccc(Cl)cc2C(=O)OC)CC1"
Outgoing: < 7.00

Incoming: Try the compound "CC[C@H]1CN(c2ncc(-c3ncc[nH]3)cc2Cl)CCN1C1CCN(C(=O)c2ccc(-n3cccc3)nc2)CC1"
Outgoing: > 7.60

====

TARGET_OR_TEST_SYSTEM: human CXCR3 (N-delta 4) (Homo sapiens)
Construct: CD8 leader (N); Flag tag; expressed in transfected cells; membranes
PROCEDURE_TEXT: Human CXCR3 (N-delta 4) Scintillation Proximity Assay (SPA), [125I] IP-10 binding
RECORDED_CONDITIONS: IC50 rating; [125I] IP-10 displacement, Ba/F3-hCXCR3 (N-delta 4) membranes
Known IC50 of a selection of compounds

Incoming: Name the recorded IC50 for CC[C@H]1CN(c2ncc(-c3ncc[nH]3)cc2Cl)CCN1C1CCN(Cc2ccc(Cl)cc2C#N)CC1 [Compound 33] .
Outgoing: < 25 nM

Incoming: Try the compound CC[C@H]1CN(c2ncc(-c3ncc[nH]3)cc2Cl)CCN1C1CCN(Cc2ccc(Br)cc2)CC1 [Compound 2]
Outgoing: < 25 nM

====

TARGET_OR_TEST_SYSTEM: human CXCR3 (N-delta 4) (Homo sapiens, UniProt P49682)
Construct: CD8 leader (N); Flag tag; expressed in transfected cells; membranes
Sequence (P49682 5-368 limits assumed): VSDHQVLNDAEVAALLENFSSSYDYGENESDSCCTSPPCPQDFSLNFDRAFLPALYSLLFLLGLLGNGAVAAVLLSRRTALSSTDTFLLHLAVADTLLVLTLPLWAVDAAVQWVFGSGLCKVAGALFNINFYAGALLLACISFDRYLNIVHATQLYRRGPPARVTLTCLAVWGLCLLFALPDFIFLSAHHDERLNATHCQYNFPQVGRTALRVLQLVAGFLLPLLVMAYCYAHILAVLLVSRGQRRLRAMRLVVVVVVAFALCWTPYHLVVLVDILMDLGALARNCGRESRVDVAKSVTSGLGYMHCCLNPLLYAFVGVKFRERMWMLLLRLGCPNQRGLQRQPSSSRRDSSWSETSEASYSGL
PROCEDURE_TEXT: Human CXCR3 (N-delta 4) Scintillation Proximity Assay (SPA), [125I] IP-10 binding
RECORDED_CONDITIONS: IC50 rating; [125I] IP-10 displacement, Ba/F3-hCXCR3 (N-delta 4) membranes
pIC50: −log10 of the molar value.
REPORTED_ENDPOINT: pIC50

// known answers, use as guide
INSERT INTO measurements (molecule, reported_endpoint, reported_value) VALUES
  ('CC[C@H]1CN(c2ncc(-c3ncc[nH]3)cc2Cl)CCN1C1CCN(Cc2ccc(Cl)cc2F)CC1', 'pIC50', '> 7.60'),
  ('CC[C@H]1CN(c2ncc(-c3nc4cc(F)ccc4[nH]3)cc2Cl)CCN1C1CCN(Cc2ccc(Cl)cc2F)CC1', 'pIC50', '> 7.60'),
  ('CC[C@H]1CN(c2ncc(-c3ncc[nH]3)cc2Cl)CCN1C1CCN(Cc2ccc(C#CC(C)(C)N)cc2)CC1', 'pIC50', '< 7.00');

Note: attention shifts to another entry.
Incoming: Name the recorded pIC50 for CC[C@H]1CN(c2ncc(C3=NCCN3)cc2Cl)CCN1C1CCN(Cc2ccc(C3CC3C(C)(C)O)cc2)CC1 (stereo partly shown) .
Outgoing: < 7.00
